FYI, the data here is from ChEMBL document CHEMBL5537186.

Assay: Thermodynamic solubility of compound in fasted simulated gastric fluid
Format: ADME
Settings: read-out: Therm_solubility
reported metric: solubility thermodynamic (µg/mL)
Please reply with the bare figure in µg/mL and do not write the unit itself.

The molecule Cc1ccc(NC(=O)N2CC[C@@H](CC(F)(F)F)C2)cc1-c1cc(N[C@H](C)CO)nc(N2CCOCC2)c1 showed solubility thermodynamic equal to 352

----------
Test: Kinetic aqueous solubility of compound at pH 4.5
Format: physicochemical
Settings: read-out: Kinetic_solubility
reported metric: solubility kinetic (µM)
Expressed in µM, but write only the number.

In the examples that follow, each entry is paired with its recorded solubility kinetic.
• Cc1ccc(NC(=O)N2CC[C@@H](CC(F)(F)F)C2)cc1-c1cc(O[C@H](C)CO)nc(N2CCOCC2)c1 = 19
• Cc1ccc(NC(=O)N2CC[C@@H](CC(F)(F)F)C2)cc1-c1cc(OCCO)nc(N2CCOCC2)c1 = 35

Just so you know, measured solubility kinetic for Cc1ccc(NC(=O)N2CC[C@@H](CC(F)(F)F)C2)cc1-c1cc(OC[C@@H](C)O)nc(N2CCOCC2)c1 came out at 26

The compound listed as Cc1ccc(NC(=O)N2CC[C@@H](CC(F)(F)F)C2)cc1-c1cc(N[C@H](C)CO)nc(N2CCOCC2)c1 [EXARAFENIB] has a reported solubility kinetic of 196

----------
Test: Clearance in mouse at 5 mg/kg, iv
Type: ADME, organism-based
Conditions: in vivo
reported metric: clearance
Answer with the value and then the unit.

For record Cc1ccc(NC(=O)N2CC[C@@H](CC(F)(F)F)C2)cc1-c1cc(N[C@H](C)CO)nc(N2CCOCC2)c1 the listed clearance is 8.5 mL/min/kg

----------
Assay: Metabolic stability in human hepatocytes assessed as compound remaining measured after 60 mins
Assay type: ADME, cell-based, Hepatocyte
Conditions: read-out: Stability
reported metric: remaining at 1 h (%)
Give a bare numeral; the unit % is implied.

Entry under test: Cc1ccc(NC(=O)N2CC[C@@H](CC(F)(F)F)C2)cc1-c1cc(OCCO)nc(N2CCOCC2)c1 . Its remaining at 1 h was 19

----------
Assay: Half life in human at 25 to 400 mg bid
Assay type: ADME
Settings: in vivo, dose 25-400 mg
reported metric: half-life

The value of half-life measured for the compound Cc1ccc(NC(=O)N2CC[C@@H](CC(F)(F)F)C2)cc1-c1cc(N[C@H](C)CO)nc(N2CCOCC2)c1 [EXARAFENIB] turned out to be ~8 h

----------
Assay: Oral bioavailability in dog at 10 mg/kg
Assay type: ADME, organism-based, Canis lupus familiaris
Settings: in vivo
reported metric: bioavailability (%)
Provide only the numeric value, understood in %.

Notebook: Cc1ccc(NC(=O)N2CC[C@@H](CC(F)(F)F)C2)cc1-c1cc(N[C@H](C)CO)nc(N2CCOCC2)c1 [EXARAFENIB] , bioavailability read as 96

----------
Test: Kinetic aqueous solubility of compound at pH 2
Type: physicochemical
Conditions: read-out: Kinetic_solubility
reported metric: solubility kinetic (µM)
Provide only the numeric value, understood in µM.

// solubility kinetic lookup, molecule = Cc1ccc(NC(=O)N2CC[C@@H](CC(F)(F)F)C2)cc1-c1cc(N[C@H](C)CO)nc(N2CCOCC2)c1 , result: 312

----------
Assay: Oral bioavailability in rat at 10 mg/kg
Format: ADME, organism-based
Conditions: in vivo
reported metric: bioavailability
Your answer should be a number followed by the unit of measure.

Measured bioavailability of Cc1ccc(NC(=O)N2CC[C@@H](CC(F)(F)F)C2)cc1-c1cc(N[C@H](C)CO)nc(N2CCOCC2)c1 [EXARAFENIB] : 82%

----------
Test: Fraction unbound in mouse plasma
Format: ADME, cell-free
reported metric: fraction unbound
The answer should be a number; do not append a unit.

The recorded fraction unbound for Cc1ccc(NC(=O)N2CC[C@@H](CC(F)(F)F)C2)cc1-c1cc(N[C@H](C)CO)nc(N2CCOCC2)c1 is 0.034

----------
Assay: Clearance in dog at 3 mg/kg, iv
Type: ADME, organism-based, Canis lupus familiaris
Conditions: in vivo
reported metric: clearance (mL/min/kg)
Report as a plain number; the unit mL/min/kg is understood.

clearance reading for Cc1ccc(NC(=O)N2CC[C@@H](CC(F)(F)F)C2)cc1-c1cc(N[C@H](C)CO)nc(N2CCOCC2)c1 : 11.7

----------
Assay: AUCinfinity in dog at 10 mg/kg, po
Type: ADME, organism-based, Canis lupus familiaris
Conditions: in vivo
reported metric: AUC(0-inf) (µM·h)
Answer format: numeric, µM·h implied, no suffix.

Value of measured AUC(0-inf) for the entry Cc1ccc(NC(=O)N2CC[C@@H](CC(F)(F)F)C2)cc1-c1cc(N[C@H](C)CO)nc(N2CCOCC2)c1 : 31

----------
Experiment: Metabolic stability in rat hepatocytes assessed as compound remaining measured after 60 mins
Assay type: ADME, cell-based, Hepatocyte
Settings: read-out: Stability
reported metric: remaining at 1 h (%)
Please state the figure in %; there is no need to write the unit.

Reported remaining at 1 h of Cc1ccc(NC(=O)N2CC[C@@H](CC(F)(F)F)C2)cc1-c1cc(N[C@H](C)CO)nc(N2CCOCC2)c1 [EXARAFENIB] : 69

----------
Assay: Metabolic stability in human hepatocytes assessed as compound remaining measured after 60 mins
Assay type: ADME, cell-based, Hepatocyte
Settings: read-out: Stability
Flag rule - remaining at 1 h less than 40% flags y; the remaining entries get n.

Reference set (3 entries):
* Cc1ccc(NC(=O)N2CC[C@@H](CC(F)(F)F)C2)cc1-c1cc(O[C@H](C)CO)nc(N2CCOCC2)c1 | y
* Cc1ccc(NC(=O)N2CCO[C@H](C(F)(F)F)C2)cc1-c1cc(OCCO)nc(N2CCOCC2)c1 | n
* Cc1ccc(NC(=O)N2CC[C@@H](CC(F)(F)F)C2)cc1-c1cc(N[C@H](C)CO)nc(N2CCOCC2)c1 | n

Query: Identify whether the compound Cc1ccc(NC(=O)N2CC[C@H](C(F)(F)F)C2)cc1-c1cc(OCCO)nc(N2CCOCC2)c1 records remaining at 1 h below 40%.
Result: y

Query: Hello, I'm reviewing records and need to know if remaining at 1 h of Cc1ccc(NC(=O)N2CC[C@@H](CC(F)(F)F)C2)cc1-c1cc(OCC(C)(C)O)nc(N2CCOCC2)c1 is below 40%. Could you check?
Result: n

Query: Please check: remaining at 1 h for Cc1ccc(NC(=O)N2CC[C@@H](CC(F)(F)F)C2)cc1-c1cc(OC[C@@H](C)O)nc(N2CCOCC2)c1 , strictly under 40% or not?
Result: y

Query: Take the compound Cc1ccc(NC(=O)N2CCO[C@@H](C(F)(F)F)C2)cc1-c1cc(OCCO)nc(N2CCOCC2)c1 and say whether its remaining at 1 h is less than 40%.
Result: n

Query: Is 40% strictly greater than the compound's reported remaining at 1 h? compound: Cc1ccc(NC(=O)N2CC[C@@H](C(F)(F)F)C2)cc1-c1cc(OCCO)nc(N2CCOCC2)c1
Result: y

Query: Hello, is remaining at 1 h of the following compound strictly smaller than 40%? Cc1ccc(NC(=O)N2CC[C@@H](CC(F)(F)F)C2)cc1-c1cc(O[C@@H](C)CO)nc(N2CCOCC2)c1
Result: n
